Give composite z-score for every item shown.
- method-notes: small-molecule microarray binders of probe aLefty2, primary screen, biochemical, biotinylated probe, 635/667 nm fluorescence (AID 1094);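 further: score merges spot fluorescence near 667 nm with spot signal-to-noise ratio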
- condition-set: higher = more signal
Answer field: number only, no words.

Q: Fill in the blank: the reported composite z-score of CCOC(=O)CCN1C(=O)[C@H]2[C@H]3[C@H](O)[C@H](O)CC(=NNC(=O)OCc4ccccc4)[C@@H]3CC[C@H]2C1=O is ____.
A: -0.23

Q: Another compound to check: CCOC(=O)C1=NO[C@]2(C=C(Br)C3(OCCCO3)[C@H]3O[C@H]32)C1
A: -0.244

Q: Another compound to check: CO[C@H]1COC(=O)CC=C[C@@H](C)[C@H](NS(=O)(=O)c2ccc(C)cc2)COC(=O)CCC[C@@H]1C
A: -0.122

Q: Another compound to check: COCOc1ccc(Br)cc1C(=O)[C@@H]1O[C@H]1c1cccc(OC)c1
A: -0.142

Q: Another compound to check: CC(C)=CCCC(C)=CCON=C1C[C@@H](O)[C@@H](O)[C@@H]2[C@@H]3C(=O)N(c4ccc(F)cc4F)C(=O)[C@@H]3CC[C@@H]12
A: 0.0054

Q: Another compound to check: CCN1C(=O)[C@H]2[C@H]3[C@H](O)[C@H](O)CC(=O)[C@H]3CC[C@H]2C1=O
A: -0.228

Q: Another compound to check: CCOC(=O)[C@H](CC(C)C)NC(=O)CCC1CC(OC(=O)NCCc2ccc(F)cc2)CC2(CCCC(COC(=O)NCC(c3ccccc3)c3ccccc3)O2)O1 (stereo not given in full)
A: -0.105

Q: Another compound to check: COC(=O)CC=C[C@@H](C)[C@@H](C=NO[C@@H](C)c1cn([C@H](CO)Cc2ccccc2)nn1)OC
A: -0.173

Q: Another compound to check: CCOC(=O)[C@H](Cc1ccccc1)NC(=O)CCC1CC(OC(=O)NCc2cccc3ccccc23)CC2(CCCC(COC(=O)NCc3cccc(C(F)(F)F)c3)O2)O1 (stereo not given in full)
A: -0.217

Q: Another compound to check: C[C@H]1CC[C@H]2C(=O)OC(CO)CN2[C@@H]1c1ccc(Br)cc1 (stereo not given in full)
A: -0.236

Q: Another compound to check: CCOC(=O)[C@H](CC(C)C)NC(=O)CCC1CC(OC(=O)NCc2cccc3ccccc23)CC2(CCCC(COC(=O)NCc3ccncc3)O2)O1 (stereo not given in full)
A: -0.166

Q: Another compound to check: CC(C)(C)N1C(=O)[C@H]2[C@H]3[C@H](O)[C@H](O)CC(=O)[C@@H]3CC[C@H]2C1=O
A: -0.204

Q: Another compound to check: COC(=O)[C@@H]1CC[C@H](C)[C@@H](c2ccc(C)cc2)N1C(=O)c1ccc(C=NOC[C@@H](C)[C@H](OCc2ccccc2)C(C)C)cc1
A: -0.244

Q: Another compound to check: O=c1n(-c2ccccc2)c(=O)n2n1CC[C@@H]1C(=NOCc3ccccc3)[C@H]3O[C@H]3[C@@H](O)[C@@H]12
A: -0.274

Q: Another compound to check: CCOC(=O)[C@H](CC(C)C)NC(=O)CCC1CC(OC(=O)NCc2ccc3c(c2)OCO3)CC2(CCCC(COC(=O)NCc3cccc(C(F)(F)F)c3)O2)O1 (stereo not given in full)
A: -0.154

Every entry's value here was drawn from PubChem BioAssay.
